Assayed Target: DP receptor (Homo sapiens)
Construct: endogenous in cells
Sequence (Q13258 whole entry): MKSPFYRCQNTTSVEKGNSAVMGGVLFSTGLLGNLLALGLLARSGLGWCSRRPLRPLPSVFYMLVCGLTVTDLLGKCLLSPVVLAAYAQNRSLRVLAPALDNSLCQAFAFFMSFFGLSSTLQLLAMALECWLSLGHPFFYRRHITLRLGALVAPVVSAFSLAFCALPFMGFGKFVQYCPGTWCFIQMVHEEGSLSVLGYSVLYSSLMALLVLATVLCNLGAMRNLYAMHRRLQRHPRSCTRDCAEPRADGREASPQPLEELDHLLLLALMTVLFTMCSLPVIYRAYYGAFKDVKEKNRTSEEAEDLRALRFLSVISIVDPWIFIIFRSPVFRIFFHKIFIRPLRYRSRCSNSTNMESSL
Experimental Protocol: cAMP assay with washed platelets (DP inhibitory activity in vitro)
Condition Details: 100 nM PGD2, cAMP by HTRF, read-out: IC50 (50% DP-inhibitory concentration in the cAMP assay)
Readout Name: log10 IC50 (log10 of the value in nM)
Scale: log10; quantity: IC50; unit before log: nM

Record excerpt, results attached:
>>> reported("CC(C)Oc1ccc(S(=O)(=O)N2CC[C@@H](c3cn(CC(=O)O)c4cc(-c5ncco5)ccc34)C2)cc1")
-0.85
>>> reported("CC(C)Oc1ccc(S(=O)(=O)N2CCC(c3cn(CC(=O)O)c4cc(-c5ccccn5)ccc34)CC2)cc1")
0.28
>>> reported("COc1cccc(-c2ccc3c(C4CCN(S(=O)(=O)c5ccc(OC(C)C)cc5)C4)cn(CC(=O)O)c3c2)c1 (stereo not drawn)")
-0.07

Quick one: give me log10 IC50 for each item below, same order please.
1. CC(C)Sc1ccc(S(=O)(=O)N2CCC(c3cn(CC(=O)O)c4ccc(Cl)cc34)C2)cc1 (stereo not drawn)
2. CC(C)Oc1ccc(S(=O)(=O)N2CCC(c3cn(CC(=O)O)c4ccc(F)cc34)C2)cc1 (stereo not drawn)
3. CC(C)Oc1ccc(S(=O)(=O)N2CCC(c3cn(CC(=O)O)c4cc(-c5ccc(C#N)cc5)ccc34)C2)cc1 (stereo not drawn)

[0.04, 0.36, 0.34]

Data provenance is patent US7956082B2.
